Biological target: MCR (α-methylacyl-CoA racemase from Mycobacterium tuberculosis) (Mycobacterium tuberculosis)
Sequence (O06543 whole entry): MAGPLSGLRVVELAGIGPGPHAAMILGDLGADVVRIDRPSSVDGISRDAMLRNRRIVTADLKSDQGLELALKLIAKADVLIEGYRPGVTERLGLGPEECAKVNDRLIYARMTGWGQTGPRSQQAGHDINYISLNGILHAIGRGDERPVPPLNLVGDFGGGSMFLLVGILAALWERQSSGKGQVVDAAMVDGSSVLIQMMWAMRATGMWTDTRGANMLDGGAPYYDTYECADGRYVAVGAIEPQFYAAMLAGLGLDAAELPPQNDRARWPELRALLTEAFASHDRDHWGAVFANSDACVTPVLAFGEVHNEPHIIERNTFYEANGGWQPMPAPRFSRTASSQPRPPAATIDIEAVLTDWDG
Assay: Colorimetric inhibition assay, dose-response curves
Conditions: pIC50, mean ± SEM, n = 3; colorimetric assay, 96 μM substrate, 3.12 nM MCR, 10 min pre-incubation
List of IC50 values.
measurement_name: IC50

compound | reported_measurement
CC(C)C(=O)SCCNC(=O)CCNC(=O)C(O)C(C)(C)COP(=O)(O)OP(=O)(O)OCC1OC(n2cnc3c(N)ncnc32)C(O)C1OP(=O)(O)O (centres unmarked) | ~1000 µM
CC(C(=O)SCCNC(=O)CCNC(=O)C(O)C(C)(C)COP(=O)(O)OP(=O)(O)OCC1OC(n2cnc3c(N)ncnc32)C(O)C1OP(=O)(O)O)c1ccc(-c2ccccc2)c(F)c1 (racemic) | 18.2 µM
CCCCCCCCCC(=O)SCCNC(=O)CCNC(=O)C(O)C(C)(C)COP(=O)(O)OP(=O)(O)OCC1OC(n2cnc3c(N)ncnc32)C(O)C1OP(=O)(O)O (centres unmarked) | ~100 µM
CCCC(=O)SCCNC(=O)CCNC(=O)C(O)C(C)(C)COP(=O)(O)OP(=O)(O)OCC1OC(n2cnc3c(N)ncnc32)C(O)C1OP(=O)(O)O (centres unmarked) | ~562 µM
CC(=O)SCCNC(=O)CCNC(=O)C(O)C(C)(C)COP(=O)(O)OP(=O)(O)OCC1OC(n2cnc3c(N)ncnc32)C(O)C1OP(=O)(O)O (centres unmarked) | ~1000 µM
